So I've got a bunch of compounds here, and I need their z-score values.
experiment: DUSP6 inhibitors restoring Erk phosphorylation by chemical complementation, primary imaging in DUSP6-transfected HeLa (AID 609); details: HeLa MKP-3 transfected, phospho-Erk imaging KS statistic; measured here: cell density z-score; at 10 µM; cells stimulated with TPA for 15 min
Could you respond with only the numeric value?

Which z-score value is on record for `C=CCn1c(SCC(=O)OC)nc2sc3c(c2c1=O)CCN(C)C3` ? 0.349

Which z-score value is on record for Cc1ccc(/C(O)=C2/C(=O)C(=O)N(Cc3ccco3)C2c2cccs2)cc1 (stereo unspecified) ? -0.164

Which z-score value is on record for `CCOC(=O)CSc1nc2ccccc2c(=O)n1C` ? -0.479

Which z-score value is on record for `CC(C)Sc1nc(N2CCCC2)c2c(c1C#N)CC(C)(C)OC2` ? 1.33

Which z-score value is on record for Cc1c(/C(O)=C2\C(=O)C(=O)N(CCCN(C)C)C2c2ccccc2)cnn1-c1ccccc1 (stereo unspecified) ? -0.232

Which z-score value is on record for `CC(C)(C)NCc1cc2ccccc2[nH]c1=O` ? -1.28

Which z-score value is on record for N#C/C(C(=O)NCc1ccccc1)=C1\SC(CCO)C(=O)N1c1ccccc1 (stereo unspecified) ? 0.0433

Which z-score value is on record for `CCCc1c(OCCCCc2nn[nH]n2)ccc(C(C)=O)c1O` ? 0.961

Which z-score value is on record for `COc1cc(OC)cc(C(=O)N2CCC(N3CCN(c4ccccc4)CC3)CC2)c1` ? 1.61

Which z-score value is on record for O=C(O)C1CSCN1S(=O)(=O)c1cccc2nsnc12 (stereo unspecified) ? -0.369

Which z-score value is on record for `CC1(C)Cc2c(sc(NC(=O)c3ccc(Br)o3)c2C#N)CO1` ? 0.838

* * *

So I've got a bunch of compounds here, and I need their nuclei count values.
experiment: inhibitors of E-selectin induction by TNFa, primary screen, imaging, HUVEC, immunofluorescence, MLSMR starter and 10KST1 sets (AID 487); settings: HUVEC TNFalpha-induced E-selectin immunofluorescence imaging, at 2 µM; measured here: cell number, toxicity;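 note: 100% = median nuclei count of all wells on the same plate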
Give the value in % but do not write % after it.

Which nuclei count value is on record for `CCn1cc(C(=O)NCc2ccco2)c(=O)c2cc(F)c(N3CCN(C(=O)c4ccco4)CC3)cc21` ? 118

Which nuclei count value is on record for `O=C(CCN1CCCCC1)Nc1cccc(Cl)c1` ? 138

Which nuclei count value is on record for CCN(CC)CCN1C(=O)C(=O)/C(=C(/O)c2ccc(Cl)cc2)C1c1ccncc1 (configuration not stated) ? 64.8

Which nuclei count value is on record for Cn1c2c(c(=O)n(C)c1=O)C(NC(=O)c1cccs1)(C(F)(F)F)C(=O)N2 (configuration not stated) ? 147

Which nuclei count value is on record for `Fc1ccccc1-c1nc(N2CCCCC2)c2ccccc2n1` ? 173

Which nuclei count value is on record for CN1CCc2c(sc3c2C(=O)NC(c2ccco2)N3)C1 (configuration not stated) ? 170

Which nuclei count value is on record for `CC(=O)OCC(=O)[C@@]12OC3(CCCC3)O[C@@H]1C[C@H]1[C@@H]3CCC4=CC(=O)C=C[C@]4(C)[C@@]3(F)[C@@H](O)C[C@@]12C` ? 118

Which nuclei count value is on record for CCC12CN3CC(CC)(CN(C1)C3c1c(O)ccc3ccccc13)C2=O (configuration not stated) ? 185

Which nuclei count value is on record for `C[C@]12CC[C@@H]3c4ccc(O)cc4CC[C@H]3[C@@H]1CCC2=O` ? 120

Which nuclei count value is on record for `CC1(C)Nc2ccc(O)cc2-c2c1ssc2=S` ? 193

Which nuclei count value is on record for `COC(=O)c1ccc(-c2sc3nc(N4CCOCC4)c4c(c3c2N)CC(C)(C)OC4)o1` ? 153

Which nuclei count value is on record for `CN(Cc1ccccc1)Cc1c[nH]c2ccccc12` ? 121

Which nuclei count value is on record for CCOC(=O)C1=C(C)N=C2SC(C)C(=O)N2C1c1cccc(F)c1 (configuration not stated) ? 139

Which nuclei count value is on record for `CC(C)(Oc1ccc(CCNC(=O)c2ccc(Cl)cc2)cc1)C(=O)O` ? 135

Which nuclei count value is on record for `Cc1ccc(Cn2ncc3c(N4CCN(c5ccc(C)cc5)CC4)ncnc32)cc1` ? 164

Which nuclei count value is on record for `CCCCn1cnc2c(c1=O)c1nc3ccccc3nc1n2Cc1ccc2c(c1)OCO2` ? 129

Which nuclei count value is on record for COc1ccc(C2CC(C(F)(F)F)n3ncc(C(=O)Nc4cccc(O)c4)c3N2)cc1OC (configuration not stated) ? 119

Which nuclei count value is on record for `Cc1nc(-c2c(-c3ccc(O)cc3O)noc2C(F)(F)F)cs1` ? 163

Which nuclei count value is on record for `CCOc1nc(SCCOc2ccc(C)cc2)nc(N(C)C)n1` ? 91.5

Which nuclei count value is on record for `C=CCNc1sc(C(=O)C2CC2)c(N)c1C#N` ? 173

Which nuclei count value is on record for `Cc1cc(C)n(CC(=O)n2c3c(c4ccccc42)CCCC3)n1` ? 130

Which nuclei count value is on record for `Cc1ccc2nc(C(F)(F)F)c(C#N)c(N)c2c1` ? 90.7

* * *

So I've got a bunch of compounds here, and I need their inhibition values.
target: Dual specificity protein phosphatase 6 (Homo sapiens) (UniProt Q16828); assay: DUSP6 inhibitors restoring Erk phosphorylation by chemical complementation, primary imaging in DUSP6-transfected HeLa (AID 609); settings: HeLa MKP-3 transfected, phospho-Erk imaging KS statistic; at 10 µM; stronger effect = higher value; cells stimulated with TPA for 15 min;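 for inhibition: phospho-Erk level distribution per well compared with pooled transfected vehicle control wells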
Sequence (Q16828 whole entry, looked up): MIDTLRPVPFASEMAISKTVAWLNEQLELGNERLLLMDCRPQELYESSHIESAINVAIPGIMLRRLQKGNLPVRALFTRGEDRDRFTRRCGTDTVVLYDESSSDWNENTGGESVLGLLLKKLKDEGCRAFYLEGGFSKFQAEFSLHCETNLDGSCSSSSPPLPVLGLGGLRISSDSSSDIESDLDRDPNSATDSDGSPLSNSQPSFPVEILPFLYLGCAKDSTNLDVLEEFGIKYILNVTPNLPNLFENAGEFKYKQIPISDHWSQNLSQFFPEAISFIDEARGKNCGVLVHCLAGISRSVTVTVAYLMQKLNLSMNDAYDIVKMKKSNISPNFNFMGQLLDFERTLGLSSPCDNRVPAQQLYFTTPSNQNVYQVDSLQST
Give the value in % but do not write % after it.

Which inhibition value is on record for `CCCCCCCC(=O)OCC(=O)[C@@]1(O)CC[C@H]2[C@@H]3CCC4=CC(=O)CC[C@]4(C)[C@H]3[C@@H](O)C[C@@]21C` ? -8.38

Which inhibition value is on record for `O=C(CCC(=O)CCN1CCCCC1)CCN1CCCCC1` ? 15.1

Which inhibition value is on record for `Oc1c(C=Nc2cccnc2)sc2ccccc12` ? -20.4

Which inhibition value is on record for C=C(C)CSC1=C(C#N)C(c2ccsc2)CC(=O)N1 (centres undefined) ? -5.89

Which inhibition value is on record for `Cc1ccc2nc(C(F)(F)F)c(C#N)c(N)c2c1` ? 1.75

Which inhibition value is on record for `CCc1cc(=O)oc2c(CN3CCCC3)c(O)c(Cl)cc12` ? 21

Which inhibition value is on record for `COc1cc(-c2nn3c(COc4ccccc4)nnc3s2)cc(OC)c1OC` ? -4.27

Which inhibition value is on record for `CCCCC[C@H](O)/C=C/[C@@H]1[C@@H](CCCCCCC(=O)O)[C@@H](O)C[C@H]1O` ? 7.39

Which inhibition value is on record for COC(=O)C1C(=O)CC(C)(O)C(C(=O)OC)C1c1ccccc1F (centres undefined) ? 7.83

Which inhibition value is on record for CC(C)NCC(O)COc1ccc(CCOCC2CC2)cc1 (centres undefined) ? 1.48

Which inhibition value is on record for CC(C)N1CC=C2C(C#N)=C(N)C(C#N)(C#N)C(c3ccccc3)C2C1 (centres undefined) ? 68.6

Which inhibition value is on record for CCCCc1ccc(NC(=O)CSC2=C(C#N)C(c3ccco3)C3=C(CCCC3=O)N2)cc1 (centres undefined) ? 7.42

Which inhibition value is on record for `CCCCOc1ccc(-c2nnc(N)s2)cc1` ? -15

Which inhibition value is on record for CCn1cc(C(=O)NCC2CCCO2)c(=O)c2cc(F)c(N3CCN(C)CC3)cc21 (centres undefined) ? 1.75

Which inhibition value is on record for CC1=CC=CN2CC(O)CN=C12 (centres undefined) ? 22.1

Which inhibition value is on record for `Cc1cc(C)nc(NC2=NCC(=O)N2c2cccc(Cl)c2)n1` ? 15.9

Which inhibition value is on record for O=C1C=C(O)CC(c2ccco2)C1 (centres undefined) ? -6.48

Which inhibition value is on record for CC1Cc2ccccc2N1NC(=O)c1ccc(Cl)c(S(N)(=O)=O)c1 (centres undefined) ? 21.2

Which inhibition value is on record for `COc1ccc(/C=C/C2=NC(=C\N(C)C)/C(=O)O2)cc1` ? 5.26

Which inhibition value is on record for `CC(C)Cn1nc(NC(=O)C(C)(C)C)c2cc3ccccc3nc21` ? -5.26

Which inhibition value is on record for `N#CCc1nc2c3c4c(sc3ncn2n1)CCCC4` ? 5.95

Which inhibition value is on record for `CCOC(=O)c1c(C)n(C)c2ccc(O)c(S(=O)(=O)c3ccccc3)c12` ? -8.76

Which inhibition value is on record for `CCOc1cc(CN2CCOCC2)cc(C(C)=O)c1` ? 15.1

Which inhibition value is on record for `Cn1c(NCCN2CCCCC2)cc(=O)n(C)c1=O` ? -1.12
